- System tested: Nuclear receptor subfamily 1 group I member 2 (Homo sapiens)
- Assay protocol: Human pregnane X receptor (PXR) small molecule agonists, qHTS assay (AID 1346982); also: nearly all actives have a fitted effect of over 35% in size
- Recorded conditions: PXR-Luc HepG2, CYP3A4 luciferase reporter, 24 h; series mostly up to 92.4 µM
Inconclusive results are not listed. Activity calls are given as the source filed them. Calls follow the shape of the dose curve; as a rule, active = well fitted activation curve with a large enough effect in the repeat runs; inconclusive = weak or mixed curves; inactive = no such curve, though single readings can be large or run the other way.
Your reply should match one of these outcome classes. Yes for active, No for inactive

## Task Give the logged outcome of this assay for the following compound: O=C(O)c1ccccc1C(=O)Nc1ccc(S(=O)(=O)Nc2nccs2)cc1
## Result No

## Task Give the logged outcome of this assay for the following compound: Nc1ccc(C(=O)OCC(O)CO)cc1 (centres undefined)
## Result No

## Task Give the logged outcome of this assay for the following compound: CC(C)=CC(C)(C)C
## Result No

## Task Give the logged outcome of this assay for the following compound: CCCCCCCCCCCCCCCCCCN(C)C
## Result No

## Task Give the logged outcome of this assay for the following compound: OCCCCCCCl
## Result No

## Task Give the logged outcome of this assay for the following compound: CCOC(=O)C(=O)c1csc(NC=O)n1
## Result No

## Task Give the logged outcome of this assay for the following compound: Cc1ccccc1N1CCN(CCc2nnc3n2CCCC3)CC1
## Result No

## Task Give the logged outcome of this assay for the following compound: Cc1ccc(S(=O)(=O)NC(=O)NC2CCCCCCC2)cc1
## Result No

## Task Give the logged outcome of this assay for the following compound: CCCCOC(=O)[C@@H](C)Oc1ccc(Oc2ccc(C(F)(F)F)cn2)cc1
## Result No

## Task Give the logged outcome of this assay for the following compound: O=C(O)c1ccc(OCCN2CCCCC2)cc1
## Result No

## Task Give the logged outcome of this assay for the following compound: CCOc1ccc(NC(=O)OC(C)C)cc1OCC
## Result Yes

## Task Give the logged outcome of this assay for the following compound: CCCCCCCCOC(C)=O
## Result No

## Task Give the logged outcome of this assay for the following compound: CNCc1ccccc1
## Result No

## Task Give the logged outcome of this assay for the following compound: O=S1(=O)CCCC1
## Result No

----------
- Assay protocol: qHTS assay for small molecule agonists of the antioxidant response element (ARE) signaling pathway - cell viability counter screen (AID 743203); also: nearly all actives have a fitted effect of over 55% in size
- Recorded conditions: ARE-bla HepG2 viability, CellTiter-Glo luminescence, 16 h; series mostly up to 73.3 µM
Records with an inconclusive call do not appear. Active and inactive are the calls of the source. The call rests on the fitted dose curve.
Measurement name: viability change, negative = cytotoxic

Observe how each entry below is paired with its result.
>>> print(df.to_string())
                                   compound  observed_measurement
0  CCCCCC1Nc2cc(C(F)(F)F)c(S(N)(=O)=O)cc2S(=O)(=O)N1 (stereo unspecified)              inactive
1                        CC(=O)/C=C/c1ccco1              inactive
2  C[C@H](CCC(=O)NCC(=O)O)[C@H]1CC[C@H]2[C@@H]3[C@H](O)C[C@@H]4C[C@H](O)CC[C@]4(C)[C@H]3C[C@H](O)[C@]12C              inactive
3                        CCCCC/C=C/CC(=O)OC              inactive
4              CCC(C)N (stereo unspecified)              inactive
5       CCC(O)C(C)(C)C (stereo unspecified)              inactive

So for BrC/C=C/CBr , the logged viability change, negative = cytotoxic turned out to be inactive

So for CCC1Nc2cc(Cl)c(S(N)(=O)=O)cc2S(=O)(=O)N1 (stereo unspecified) , the logged viability change, negative = cytotoxic turned out to be inactive

So for Nc1cc(S(=O)(=O)O)ccc1S(=O)(=O)O , the logged viability change, negative = cytotoxic turned out to be inactive

So for CCN(CCC#N)c1ccccc1 , the logged viability change, negative = cytotoxic turned out to be inactive

So for CCNC(=O)NCCCOc1cccc(CN2CCCCC2)c1 , the logged viability change, negative = cytotoxic turned out to be inactive

So for CCC(=O)c1ccc(O)cc1 , the logged viability change, negative = cytotoxic turned out to be inactive

Origin of measurements: PubChem BioAssay (Tox21)
